molecular target: inactive BoNT/G (BoNT/Gi) (Clostridium botulinum) (UniProt Q60393); experiment: flow cytometry, scFv on yeast
Sequence (Q60393 whole entry): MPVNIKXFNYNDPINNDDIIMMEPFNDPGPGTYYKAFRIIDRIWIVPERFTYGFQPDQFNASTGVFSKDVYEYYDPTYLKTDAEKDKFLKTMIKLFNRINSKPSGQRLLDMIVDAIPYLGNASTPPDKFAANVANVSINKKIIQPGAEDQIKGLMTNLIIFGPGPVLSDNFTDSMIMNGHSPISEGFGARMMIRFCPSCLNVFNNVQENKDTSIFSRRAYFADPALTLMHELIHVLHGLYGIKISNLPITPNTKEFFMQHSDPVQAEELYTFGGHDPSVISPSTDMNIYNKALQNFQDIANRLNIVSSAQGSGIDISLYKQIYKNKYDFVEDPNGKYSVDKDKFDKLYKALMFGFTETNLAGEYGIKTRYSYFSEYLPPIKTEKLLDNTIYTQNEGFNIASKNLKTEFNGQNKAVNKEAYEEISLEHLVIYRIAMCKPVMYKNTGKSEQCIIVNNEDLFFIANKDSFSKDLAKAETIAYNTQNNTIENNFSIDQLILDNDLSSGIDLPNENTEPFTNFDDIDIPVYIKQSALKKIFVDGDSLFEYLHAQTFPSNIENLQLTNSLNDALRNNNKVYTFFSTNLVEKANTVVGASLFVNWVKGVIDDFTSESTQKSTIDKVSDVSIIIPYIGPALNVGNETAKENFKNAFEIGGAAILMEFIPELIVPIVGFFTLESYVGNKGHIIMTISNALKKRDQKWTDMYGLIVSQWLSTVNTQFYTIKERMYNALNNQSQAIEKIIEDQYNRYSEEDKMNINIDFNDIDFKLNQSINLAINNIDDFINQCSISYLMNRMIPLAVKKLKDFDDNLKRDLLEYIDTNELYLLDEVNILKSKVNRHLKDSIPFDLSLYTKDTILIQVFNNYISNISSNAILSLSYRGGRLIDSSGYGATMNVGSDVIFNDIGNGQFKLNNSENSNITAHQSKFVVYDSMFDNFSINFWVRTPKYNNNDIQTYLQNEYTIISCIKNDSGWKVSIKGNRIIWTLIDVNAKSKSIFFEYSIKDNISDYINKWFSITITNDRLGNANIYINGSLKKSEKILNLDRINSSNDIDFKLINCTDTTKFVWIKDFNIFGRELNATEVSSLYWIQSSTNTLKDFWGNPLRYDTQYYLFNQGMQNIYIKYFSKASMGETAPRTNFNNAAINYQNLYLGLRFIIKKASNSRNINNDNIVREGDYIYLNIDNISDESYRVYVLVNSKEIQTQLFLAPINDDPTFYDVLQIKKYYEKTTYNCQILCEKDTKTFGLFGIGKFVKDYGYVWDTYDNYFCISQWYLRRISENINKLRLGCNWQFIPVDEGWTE
pKd: −log10 of the molar value.

binder	pKd
hu6G6 variant B8 scFv (scFv) scFv: QVQLVQSGAEVNKPGASVKLSCKASGFNIKDTYMHWVRQAPGQGLEWIGRIDPANGNTKYDPKFQGRATITAYTSFNTAYLELSRLRSDDTAVYYCASGPNYYGTTWFAYWGQGSTVTVSSVDLKSGGSTSGSGKPGSGEGSSGSAREIVLTQSPSTLSASVGDRVTITCRASHGISNYLAWYQQKPGRAPKLLIYKASTLHIGVPSRFSGSGSGTEFALTISSLQPDDFSTYYCQQYNSYLPHTFGQGTRLEIK	8.43
hu6G6 variant A3 scFv (scFv) scFv: QVQLVQSGAEVKKPGASVKLSCKASGFNIKDTYMHWVRQAPGQGLEWIGRIDPANGNTKYDPKFQGRATITAGTSINTAYLELSRLRSDDTAVYYCASGPNYYGTTWFAYWGQGTTVTVSSVDLKSGGSTSGSGKPGSGEGSSGSARKIVLTQSPSTLSASVGDRVTITCRASHGISNYLAWYQQKPGRAPKLLIYKASTLHIGVPSRFSGSGSGTEFALTISSLQPDDFSTYYCQQYISYLPHTFGQGTRLEIK	8.29
hu6G6 variant B8.1 scFv (scFv) scFv: QVQLVQSGAEVNKPGASVKLSCKASGFNIKDTYMHWVRQAPGQGLEWIGRIDPANGNTKYDPKFQGRATITAYTSFNTAYLELSRLRSDDTAVYYCASGPNYYGTTWFAYWGQGTTVTVSSVDLKSGGSTSGSGKPGSGEGSSGSAREIVLTQSPSTLSASVGDRVTITCRASHGISNYLAWYQQKPGRAPKLLIYKASTLHIGVPSRFSGSGSGTEFALTISSLQPDDFSTYYCQQYNSYLPHTFGQGTRLEIK	8.27
hu6G6 variant A4 scFv (scFv) scFv: QVQLVQSGAEVKKPGASVKLSCKASGFNIKDTYMHWVRQAPGQGLEWIGRIDPENGNTKYDPKFQGRATITAYKSINTAYLELSRLRSDDTAVYYCASGPNYYGTTWFAYWGQGTTVTVSSVDLKSGGSTSDSGKPGSGEGSSGSAREIVLTQSPSTLSASVGDRVTITCRASHGISNYLAWYQQKPGRAPKLLIYKASTLHIGVPSRFSGSGSGTEFALTISSLQPDDFSTYYCQQYNSYLPHTFGQGTRLEIK	8.46
